target: T1, recombinant purified FRα (ECL assay calibrator) (human, UniProt P15328 25-234); experiment: ECL sandwich on FRα, signal to background; capture 1A8.G11.E7; binder = detection Ab
T1 construct: Calibrator of the ECL sandwich assays; also called FRα calibrator; FRα standard
T1 sequence (P15328 25-234 limits assumed): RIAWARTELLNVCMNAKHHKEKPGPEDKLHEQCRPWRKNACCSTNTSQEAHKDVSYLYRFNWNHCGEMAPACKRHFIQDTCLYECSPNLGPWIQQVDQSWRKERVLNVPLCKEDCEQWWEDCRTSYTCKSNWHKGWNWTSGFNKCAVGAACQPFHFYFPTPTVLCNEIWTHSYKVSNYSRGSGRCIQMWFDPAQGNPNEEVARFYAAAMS
measurement_name: Average of S/B
Reply: number alone, nothing else.

Example entries and their recorded answers appear below.
{"binder": "Monoclonal antibody 24H8.F3 (antibody, mouse IgG1, V domains shown, Murine IgG1 kappa from hybridoma; also called ATCC PTA-123097) VH: GPGLVAPSQSLSITCTVSGFSLTSYGVSWVRQPPGKGLEWLGVIWGDGSTNYHSTLISRLSISKDNSKSQVFLKLNSLQTDDTATYYCAKPHPAATGAMDYWGQGTSVTVSS VL: TTSSLSASLGDRVTISCRASQDISNHLNWYQQKPDGTIKLLIYYTSKLHSGVPSRFSGSGSGTDYSLTISNLEQEDIATYFCQQGNTLWTFGGGTKLEIK", "Average of S/B": 2}
{"binder": "Monoclonal antibody 19D4.B7 (antibody, mouse IgG2a, V domains shown, SULFO-TAG conjugated when used as detection antibody in the ECL assay; also called ATCC PTA-11884) VH: GARELVKPGASVKLSCTASGFNIKHPYMHWVKQRPDQGLEWIGRIDPANGNTKYDPKFQGKATITADTSSNTAYLQLSSLTSEDTAVYYCGREEVADYTMDYWGQGTSVTVSS VL: PASLAVSLGQRATISCRASESVDTYGNNFIHWYQQKPGQPPKLLIYLASNLESGVPARFSGSGSRTDFTLTIDPVEADDAATYYCQQNNGDPWTFGGGTKLEIKR", "Average of S/B": 405}
{"binder": "Monoclonal antibody 6A2.G7 (antibody, mouse IgG1, V domains shown, Murine IgG1 kappa from hybridoma; also called ATCC PTA-123093) VH: GADLVKPGASVKMSCKASGYTFSRYNMHWVKQTPGQGLEWIGTIYPGNGDTSYNEKFKGKATLTADKSSSIVYMQVSSLTSEASAVYYCARDYGSRYALDYWGQGTSVTVSS VL: SSLSASLGDRVTISCRASQDISNYLNWYQQKPDGTVKLLIYYTSRLHSGVPSRFSGSGSGTDYSLTISNLEQEDIATYFCQQGNTLPYTFGGGTKLEIK", "Average of S/B": 89}

I would be grateful if you could share the reported Average of S/B for Monoclonal antibody 1D2.D8.G10 (antibody, mouse IgG1, V domains shown, Murine IgG1 kappa from hybridoma; also called 1D2.D8.G0; ATCC PTA-123098) VH: QSGTVLARPGASVKMSCKASGYSFTSNWMHWIKQRPGQGLEWIGAIYPGNSDTSYNQKFKGKAKLTAVTSASTAYMELSSLTNEDSAVYHCTRGDGSSFWYFDVWGAGTTVTVSS VL: QSPASLVVSLGQRATISCRASKSVSTSGYSYMYWYQQKSGQPPKLLIYLASNLESGVPARFSGGGSGTDFTLNIHPVEEEDAATYYCQQSRELPPTFGGGTKLEIK .
1

I would be grateful if you could share the reported Average of S/B for Monoclonal antibody 1A8.G11.E7 (antibody, mouse IgG1, V domains shown, Murine IgG1 kappa from hybridoma; also called ATCC PTA-123100) VH: ESGPGLVAPSQSLSITCTVSGFSLTSYGVSWVRQPPGKGLEWLGVIWGDGSTNYHSTLISRLSISKDNSKSQVFLKLNSLQTDDTATYYCAKPHPAATGAMDYWGQGTSVTVSS VL: TQTTSSLSASLGDRVTISCRASQDISNHLNWYQQKPDGTVKLLIYYTSRLHSGVPSRFSGSGSGTDYSLTISNLEQEDIATYFCQQGNTLWTFGGGTKLEIK .
1

Cited source: patent US20180148504A1
